- ASSAYED_SYSTEM: Gal4-RORγ LBD (Homo sapiens, UniProt P51449)
- Sequence (P51449 269-508 limits assumed): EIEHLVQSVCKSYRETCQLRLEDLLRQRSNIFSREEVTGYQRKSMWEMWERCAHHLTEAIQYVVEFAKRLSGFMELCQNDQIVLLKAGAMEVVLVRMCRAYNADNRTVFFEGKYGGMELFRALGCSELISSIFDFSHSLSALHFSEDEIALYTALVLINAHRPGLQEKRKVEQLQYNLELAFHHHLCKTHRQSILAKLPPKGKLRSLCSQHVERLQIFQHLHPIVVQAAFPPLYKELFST
- MEASUREMENT_PROTOCOL: Gal4-RORγ LBD cotransfection luciferase assay in HEK293 cells
- Assay type: cell-based
- SETTINGS: read-out: IC50 (suppression of transcriptional activity); dose-response, HEK293
REPORTED_ENDPOINT: IC50 (nM)
Reply with just the number (in nM).

Form field: reported IC50 of CC(C)[C@@H](O)CC[C@@H](C)[C@H]1CC[C@H]2[C@@H]3CC=C4C[C@@H](O)CC[C@]4(C)[C@H]3CC[C@]12C [24S-OHC, 24S-hydroxycholesterol]
1300

The origin of these recorded values is paper PMC2886165.
